A collection of compounds and their measured activity at 25 µM
Molecular target: Recombinant human glycogen synthase kinase 3 beta (Homo sapiens, UniProt P49841)
Sequence (P49841 whole entry): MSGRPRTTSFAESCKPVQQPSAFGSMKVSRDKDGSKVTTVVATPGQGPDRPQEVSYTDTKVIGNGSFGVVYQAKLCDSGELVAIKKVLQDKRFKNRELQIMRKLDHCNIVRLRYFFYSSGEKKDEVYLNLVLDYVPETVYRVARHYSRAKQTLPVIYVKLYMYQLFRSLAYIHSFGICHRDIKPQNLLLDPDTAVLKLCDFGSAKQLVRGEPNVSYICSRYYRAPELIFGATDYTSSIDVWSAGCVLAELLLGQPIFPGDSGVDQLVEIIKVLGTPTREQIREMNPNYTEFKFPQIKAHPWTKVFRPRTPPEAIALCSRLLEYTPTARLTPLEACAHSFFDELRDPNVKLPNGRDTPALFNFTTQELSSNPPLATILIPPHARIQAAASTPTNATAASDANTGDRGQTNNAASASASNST
Assay: GSK-3 beta inhibition assay (33P-ATP, GS-2 peptide substrate, phosphocellulose filter counting)
Format: biochemical
Details: test compound at 25µM; result in percentage of enzyme activity (lower = more inhibition)
Please give a number only; it is taken to be in %.

compound: OCC=Cc1ccoc1
activity at 25 µM [%]: 61.1
//
compound: CC(=CCCC(C)C=CC=C(C)CCCc1ccoc1)CO (centres unmarked)
activity at 25 µM [%]: 83.7
//
compound: CC(=CC=CC(C)CCC=C(C)COC(=O)C(C)(C)C)CCCc1ccoc1 (centres unmarked)
activity at 25 µM [%]: 45
//
compound: CCOC(=O)C=C(C)CCCc1ccoc1
activity at 25 µM [%]: 83.7

Now examine the next entry.
[ask] Need activity at 25 µM of CC(=CC=CC(C)CCCO[Si](c1ccccc1)(c1ccccc1)C(C)(C)C)CCCc1ccoc1 (centres unmarked) , thanks.
[reply] 29
